These measurements were taken from paper PMC6007452.

- STUDY_TARGET: HaTreh-1 (soluble trehalase) (Helicoverpa armigera)
- Sequence (A0A6B8YU37 24-571): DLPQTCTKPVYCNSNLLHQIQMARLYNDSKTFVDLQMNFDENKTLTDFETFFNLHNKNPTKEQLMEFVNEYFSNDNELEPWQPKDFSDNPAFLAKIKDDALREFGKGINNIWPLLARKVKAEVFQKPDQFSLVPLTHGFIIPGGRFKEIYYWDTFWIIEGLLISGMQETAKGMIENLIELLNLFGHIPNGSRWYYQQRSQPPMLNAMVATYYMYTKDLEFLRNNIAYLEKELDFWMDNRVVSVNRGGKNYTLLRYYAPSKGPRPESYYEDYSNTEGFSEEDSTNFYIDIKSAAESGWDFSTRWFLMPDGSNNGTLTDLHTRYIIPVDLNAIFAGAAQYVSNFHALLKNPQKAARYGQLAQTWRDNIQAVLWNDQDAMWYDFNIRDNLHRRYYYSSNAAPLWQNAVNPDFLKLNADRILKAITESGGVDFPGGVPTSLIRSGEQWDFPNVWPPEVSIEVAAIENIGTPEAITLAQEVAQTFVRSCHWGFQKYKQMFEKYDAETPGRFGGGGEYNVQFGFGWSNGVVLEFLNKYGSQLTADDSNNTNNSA
QUANTITY_NAME: pKi
Answers are plain numbers, as −log10 of the molar value.

Input line: Which measured pKi value corresponds to O[C@H]1[C@H](O)[C@@H](O)CN2CC[C@H](O)[C@H]12 [castanospermine] ?
Output line: 5.17
